Tested on: HCC 2998
protocol.description: NCI tumour cell line growth inhibition, 48 h
The whole screen tested about 53,000 sequences, of which about 3,200 (6%) were called active. The entries come from a sample that favours actives as a whole. Potency and affinity values are given separately.
Threshold 10 µM: GI50 strictly smaller gives satisfied, otherwise not satisfied.

Please indicate whether the reported GI50 of CISPLATIN, CHEMBL11359 is strictly below 10 µM. satisfied

Please indicate whether the reported GI50 of [Bis(aminomethyl)pentamethylenesilane]tetrachloropaltinum(IV), CHEMBL2146204 is strictly below 10 µM. satisfied

Please indicate whether the reported GI50 of [Bis(aminomethyl)tetramethylenesilane]dichloropaltinum(II), CHEMBL2146205 is strictly below 10 µM. not satisfied

Please indicate whether the reported GI50 of mu-(1,7-nanodiamine-N,N')bis-(cis-aminedichloroplatimum (II)), CHEMBL2146215 is strictly below 10 µM. not satisfied

Please indicate whether the reported GI50 of [Bis(aminomethyl)dimethylsilane]tetrachloroplatinum(IV), CHEMBL2146190 is strictly below 10 µM. satisfied

Please indicate whether the reported GI50 of [Bis(aminomethyl)ethylmethylsilane]tetrachloroplatinum(IV), CHEMBL2146192 is strictly below 10 µM. satisfied

# credit: ChEMBL document CHEMBL1201862
